- assayed-system: human ether-à-go-go-related gene (hERG) potassium channel (human);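 further: peak tail current of the secondary pulse compared with the same well before compound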
- Sequence (Q12809 whole entry, looked up): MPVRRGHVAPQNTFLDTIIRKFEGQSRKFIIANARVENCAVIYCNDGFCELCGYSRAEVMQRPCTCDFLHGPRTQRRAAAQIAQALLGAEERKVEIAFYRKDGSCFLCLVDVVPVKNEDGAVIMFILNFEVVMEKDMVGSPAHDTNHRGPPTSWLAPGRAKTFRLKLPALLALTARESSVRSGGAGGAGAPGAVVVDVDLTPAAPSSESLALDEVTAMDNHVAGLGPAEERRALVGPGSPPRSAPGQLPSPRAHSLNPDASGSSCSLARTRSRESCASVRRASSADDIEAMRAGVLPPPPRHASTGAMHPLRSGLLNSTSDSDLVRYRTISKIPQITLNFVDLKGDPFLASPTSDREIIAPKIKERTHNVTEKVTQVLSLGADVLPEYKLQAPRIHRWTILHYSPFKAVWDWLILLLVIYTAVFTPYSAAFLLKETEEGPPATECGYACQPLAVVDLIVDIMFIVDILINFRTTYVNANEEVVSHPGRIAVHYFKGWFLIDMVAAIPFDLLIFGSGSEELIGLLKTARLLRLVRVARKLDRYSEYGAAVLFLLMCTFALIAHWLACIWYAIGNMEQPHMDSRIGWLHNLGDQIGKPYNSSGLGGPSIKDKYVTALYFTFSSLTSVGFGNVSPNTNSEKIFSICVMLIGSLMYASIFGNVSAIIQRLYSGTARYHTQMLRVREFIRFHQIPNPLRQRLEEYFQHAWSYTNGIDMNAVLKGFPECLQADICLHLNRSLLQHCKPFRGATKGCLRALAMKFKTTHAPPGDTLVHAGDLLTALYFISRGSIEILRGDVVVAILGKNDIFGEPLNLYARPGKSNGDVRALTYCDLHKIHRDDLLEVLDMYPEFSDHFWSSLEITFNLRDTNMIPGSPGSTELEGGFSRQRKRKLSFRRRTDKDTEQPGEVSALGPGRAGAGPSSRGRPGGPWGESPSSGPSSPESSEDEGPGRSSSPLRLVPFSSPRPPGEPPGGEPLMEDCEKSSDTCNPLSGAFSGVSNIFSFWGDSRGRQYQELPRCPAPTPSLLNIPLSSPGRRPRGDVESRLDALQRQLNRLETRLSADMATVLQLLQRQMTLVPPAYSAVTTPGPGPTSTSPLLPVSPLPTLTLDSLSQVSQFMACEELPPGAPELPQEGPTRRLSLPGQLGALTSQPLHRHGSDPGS
- procedure-details: primary screen, population patch clamp on CHO cells stably expressing hERG; higher = less effect of the substance
- Procedure: Briefly, Chinese hamster ovary (CHO) cells stably expressing the hERG channel were dislodged from tissue culture flasks and dispensed into PPC plates. […] During the recording, background leak currents were estimated by a 100 ms step to -80 mV from an initial holding potential of -70 mV and subtracted from the subsequent current measurement. The campaign was conducted in two phases using slight differences in recording protocol. […]
In all, about 310,000 compounds went through this assay and about 14,000 (4.5%) showed an effect of 50% or more. Effects have a minus sign here. For the sample, strong results were picked, then their nearest neighbours and some compounds at random.
measure: hERG current change (%, negative = inhibition) at 10uM (%)
Answer in %, number only, no unit symbol.

>>> df
                         compound  readout_number
0  O=S(=O)(Cc1ccccc1Cl)NCc1ccccc1            7.02
1  O=C(NCCN1CCOCC1)C(=O)NCc1ccco1            19.5

# get_value(readout='hERG current change (%, negative = inhibition) at 10uM', item= Cn1c(SCCC(=O)O)nnc1-c1ccncc1 )
1.73

# iterate: O=C(Nc1nnc(C2=COCCO2)o1)c1ccc(S(=O)(=O)N2CCCC2)cc1
17.2

# iterate: CC(C)Cn1c2nc3ccccc3nc2c2c(=O)n(CCN3CCOCC3)cnc21
-48.1

* * *

- assayed-system: human ether-à-go-go-related gene (hERG) potassium channel (human);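 further: peak tail current of the secondary pulse compared with the same well before compound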
- procedure-details: primary screen, population patch clamp on CHO cells stably expressing hERG; higher = less effect of the substance
About 14,000 (4.5%) of roughly 310,000 compounds showed an effect of 50% or more. The effect is printed as a negative number. The list comes from a sample in which strong results are over-represented; it also holds close analogues and randomly drawn compounds.
Reported hERG current change (%, negative = inhibition) at 10uM values for the following compounds.
Answer in %, number only, no unit symbol.

// worked examples, hERG current change (%, negative = inhibition) at 10uM included
In [3]: df
Out[3]:
                    structure_smiles_string                            assayed_system  quantity_unit  readout_number
0  COc1ccc(NC(=O)COc2ccccc2F)cc1S(=O)(=O)N1CCCCC1  human ether-à-go-go-related gene (hERG) potassium channel (human)              %            6.02
1  CSc1ccc(CN2CCN(S(=O)(=O)Cc3ccccc3)CC2)cc1  human ether-à-go-go-related gene (hERG) potassium channel (human)              %            1.28
2  CCCN(N=Nc1cccc([N+](=O)[O-])c1)c1cccc([N+](=O)[O-])c1  human ether-à-go-go-related gene (hERG) potassium channel (human)              %            3.14
3        COc1ccc(O)c(-c2cn[nH]c2-c2cccs2)c1  human ether-à-go-go-related gene (hERG) potassium channel (human)              %             7.6

For the next question, use this compound.
# get_value(readout='hERG current change (%, negative = inhibition) at 10uM', item= CCOC(=O)c1c(S(=O)(=O)NCc2cccs2)c(C)n(C)c1C )
-12.1
